STUDY_TARGET: human TLR8 (Homo sapiens (Human))
Sequence (Q9NR97 27-1041): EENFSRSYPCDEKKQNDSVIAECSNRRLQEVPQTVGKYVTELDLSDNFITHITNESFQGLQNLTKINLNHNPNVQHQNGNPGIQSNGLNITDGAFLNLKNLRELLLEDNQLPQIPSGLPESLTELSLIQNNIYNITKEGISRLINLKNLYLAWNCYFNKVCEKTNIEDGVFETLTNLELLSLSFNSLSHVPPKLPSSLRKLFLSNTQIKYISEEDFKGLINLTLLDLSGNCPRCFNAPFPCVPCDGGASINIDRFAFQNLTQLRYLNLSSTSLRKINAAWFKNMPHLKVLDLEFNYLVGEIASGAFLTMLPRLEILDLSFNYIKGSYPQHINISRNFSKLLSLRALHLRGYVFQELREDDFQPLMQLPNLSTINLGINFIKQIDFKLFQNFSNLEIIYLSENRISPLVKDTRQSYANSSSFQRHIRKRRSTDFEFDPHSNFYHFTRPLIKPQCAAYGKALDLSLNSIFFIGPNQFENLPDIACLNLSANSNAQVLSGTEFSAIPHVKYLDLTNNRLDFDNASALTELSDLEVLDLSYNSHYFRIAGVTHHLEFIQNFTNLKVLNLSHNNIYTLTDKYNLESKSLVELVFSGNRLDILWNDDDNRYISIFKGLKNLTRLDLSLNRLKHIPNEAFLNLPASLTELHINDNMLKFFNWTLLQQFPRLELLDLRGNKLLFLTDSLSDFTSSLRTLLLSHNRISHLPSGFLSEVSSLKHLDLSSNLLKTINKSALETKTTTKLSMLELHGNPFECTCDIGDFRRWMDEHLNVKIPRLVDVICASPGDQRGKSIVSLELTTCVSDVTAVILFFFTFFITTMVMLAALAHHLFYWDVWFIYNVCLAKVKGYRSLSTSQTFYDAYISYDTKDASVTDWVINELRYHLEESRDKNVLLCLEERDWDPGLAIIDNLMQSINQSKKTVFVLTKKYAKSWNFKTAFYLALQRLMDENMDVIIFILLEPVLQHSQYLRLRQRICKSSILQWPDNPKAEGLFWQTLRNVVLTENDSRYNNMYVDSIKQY
ASSAY_DETAILS: TLR8 inhibition reporter assay (HEK-Blue SEAP);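 note: SEAP driven by IFN-β minimal promoter carrying NF-κB and AP-1 sites, compounds dosed 0.05 nM to 50 µM for 22 h, inhibition scaled between agonist-plus-DMSO and reference-inhibitor wells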
CONDITION_PARAMETERS: read-out: TLR8 IC50; HEK-Blue cells overexpressing human TLR8, R848 15.9 μM stimulation, SEAP reporter
pIC50: −log10 of the molar value.
RECORDED_ENDPOINT: pIC50

Answered examples (3):
{"columns": ["COMPOUND", "STUDY_TARGET", "RECORDED_ENDPOINT", "VALUE_MEASURED"],
 "data": [
  ["CNC1CN(c2ccc3[nH]c(-c4cc(OC)c5ncnn5c4)c(C(C)C)c3n2)C1 [Example 31]", "human TLR8 (Homo sapiens (Human))", "pIC50", 7.72],
  ["Cc1c(-c2[nH]c3ccc(N4CCN(C(=O)CNC(C)C)CC4)nc3c2C(C)C)cn2ncnc2c1C [Example 157]", "human TLR8 (Homo sapiens (Human))", "pIC50", 8.92],
  ["COc1ncnc(OC)c1CN(C)C1CCN(c2ccc3[nH]c(-c4cn5ncnc5c(C)c4C)c(C(C)C)c3n2)CC1 [Example 61]", "human TLR8 (Homo sapiens (Human))", "pIC50", 8.74]
]}

[P] Cc1c(-c2[nH]c3ccc(N4CC(O)C4)nc3c2C(C)C)cn2ncnc2c1C [Example 38]
[Q] Cc1c(-c2[nH]c3ccc(N4CCN(CC(=O)N(C)C)CC4=O)nc3c2C(C)C)cn2ncnc2c1C [Example 141]
[R] Cc1c(-c2[nH]c3ccc(C4CCC(NC5COC5)CC4)nc3c2C(C)C)cn2ncnc2c1C (stereo not drawn) [Example 350]
IN: Order the records, beginning with the lowest pIC50 and ending with the highest. Respond with an ordered listing of the labels, as requested.
OUT: Q, P, R

[A] Cc1c(-c2[nH]c3ccc(N4CCN(C(=O)CN5CCOCC5)CC4)nc3c2C(C)C)cn2ncnc2c1C [Example 143]
[B] CC(C)c1c(-c2cn(C)c3ncccc23)[nH]c2ccc(C3CCC(NCCS(C)(=O)=O)CC3)nc12 (stereo not drawn) [Example 251]
IN: So which one has the bigger pIC50 here, A or B ? Selection: enter the item's label.
OUT: A
(A: 8.35, B: 7.89)

----------
STUDY_TARGET: UniProtKB Q9NYK1
Sequence (Q9NYK1 27-1049): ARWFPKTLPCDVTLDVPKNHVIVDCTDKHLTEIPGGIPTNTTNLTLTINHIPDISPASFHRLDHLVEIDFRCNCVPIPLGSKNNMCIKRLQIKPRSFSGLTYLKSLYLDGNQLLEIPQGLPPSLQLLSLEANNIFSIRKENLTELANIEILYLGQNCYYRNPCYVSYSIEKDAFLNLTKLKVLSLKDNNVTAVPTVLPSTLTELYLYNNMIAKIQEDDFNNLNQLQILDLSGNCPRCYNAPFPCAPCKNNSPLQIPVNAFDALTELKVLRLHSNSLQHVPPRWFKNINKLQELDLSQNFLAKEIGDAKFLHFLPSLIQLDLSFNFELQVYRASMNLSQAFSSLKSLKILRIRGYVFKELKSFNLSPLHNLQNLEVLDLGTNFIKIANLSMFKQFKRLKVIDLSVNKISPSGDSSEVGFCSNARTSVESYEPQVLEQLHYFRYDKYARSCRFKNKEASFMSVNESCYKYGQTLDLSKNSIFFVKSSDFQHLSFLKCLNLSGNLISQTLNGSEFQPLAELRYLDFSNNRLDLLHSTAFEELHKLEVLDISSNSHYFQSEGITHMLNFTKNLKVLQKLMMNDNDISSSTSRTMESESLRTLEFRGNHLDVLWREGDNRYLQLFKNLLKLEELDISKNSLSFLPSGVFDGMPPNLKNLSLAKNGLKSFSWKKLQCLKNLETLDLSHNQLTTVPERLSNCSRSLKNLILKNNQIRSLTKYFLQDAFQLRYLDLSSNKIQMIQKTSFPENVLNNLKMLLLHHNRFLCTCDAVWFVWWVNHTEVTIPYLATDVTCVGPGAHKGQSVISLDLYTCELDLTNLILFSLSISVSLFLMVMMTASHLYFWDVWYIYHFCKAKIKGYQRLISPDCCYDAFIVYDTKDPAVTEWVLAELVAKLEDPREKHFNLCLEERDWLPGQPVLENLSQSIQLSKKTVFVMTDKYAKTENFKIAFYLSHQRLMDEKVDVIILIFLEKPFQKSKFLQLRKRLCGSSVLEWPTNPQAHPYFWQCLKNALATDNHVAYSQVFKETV
ASSAY_DETAILS: TLR7 inhibition reporter assay (HEK-Blue SEAP)
Assay type: cell-based
CONDITION_PARAMETERS: HEK-Blue cells overexpressing human TLR7, SEAP reporter, gardiquimod 7.5 μM
pIC50: −log10 of the molar value.
RECORDED_ENDPOINT: pIC50

Study these solved cases before continuing.
{"columns": ["MOLECULE", "VALUE_MEASURED"],
 "data": [
  ["CC(C)c1c(-c2ccc(=O)n(C)c2)[nH]c2ccc(C3CCNCC3)nc12", 6.50],
  ["Cc1c(-c2[nH]c3ccc(C4CCC(NC5CCS(=O)(=O)C5)CC4)nc3c2C(C)C)cn2ncnc2c1C (stereo not shown) [Example 465]", 8.96]
]}

[I] Cc1c(-c2[nH]c3ccc(N4C[C@H](C)N(CCC(N)=O)[C@@H](C)C4)nc3c2C(C)C)cn2ncnc2c1C
[II] Cc1c(-c2[nH]c3ccc(C4CCNCC4)nc3c2C(C)C)cn(C)c(=O)c1C
IN: Could you determine which record has the numerically smaller pIC50? Candidates: I and II Kindly state the label of the option you pick.
OUT: II
(II: 8.08, I: 9.05)

// provenance: patent US10544143B2
